Study System: H^+ +K^+ ATPase (Sus scrofa, UniProt P19156)
Construct: prepared from porcine stomach
Sequence (P19156 2-1034 limits assumed): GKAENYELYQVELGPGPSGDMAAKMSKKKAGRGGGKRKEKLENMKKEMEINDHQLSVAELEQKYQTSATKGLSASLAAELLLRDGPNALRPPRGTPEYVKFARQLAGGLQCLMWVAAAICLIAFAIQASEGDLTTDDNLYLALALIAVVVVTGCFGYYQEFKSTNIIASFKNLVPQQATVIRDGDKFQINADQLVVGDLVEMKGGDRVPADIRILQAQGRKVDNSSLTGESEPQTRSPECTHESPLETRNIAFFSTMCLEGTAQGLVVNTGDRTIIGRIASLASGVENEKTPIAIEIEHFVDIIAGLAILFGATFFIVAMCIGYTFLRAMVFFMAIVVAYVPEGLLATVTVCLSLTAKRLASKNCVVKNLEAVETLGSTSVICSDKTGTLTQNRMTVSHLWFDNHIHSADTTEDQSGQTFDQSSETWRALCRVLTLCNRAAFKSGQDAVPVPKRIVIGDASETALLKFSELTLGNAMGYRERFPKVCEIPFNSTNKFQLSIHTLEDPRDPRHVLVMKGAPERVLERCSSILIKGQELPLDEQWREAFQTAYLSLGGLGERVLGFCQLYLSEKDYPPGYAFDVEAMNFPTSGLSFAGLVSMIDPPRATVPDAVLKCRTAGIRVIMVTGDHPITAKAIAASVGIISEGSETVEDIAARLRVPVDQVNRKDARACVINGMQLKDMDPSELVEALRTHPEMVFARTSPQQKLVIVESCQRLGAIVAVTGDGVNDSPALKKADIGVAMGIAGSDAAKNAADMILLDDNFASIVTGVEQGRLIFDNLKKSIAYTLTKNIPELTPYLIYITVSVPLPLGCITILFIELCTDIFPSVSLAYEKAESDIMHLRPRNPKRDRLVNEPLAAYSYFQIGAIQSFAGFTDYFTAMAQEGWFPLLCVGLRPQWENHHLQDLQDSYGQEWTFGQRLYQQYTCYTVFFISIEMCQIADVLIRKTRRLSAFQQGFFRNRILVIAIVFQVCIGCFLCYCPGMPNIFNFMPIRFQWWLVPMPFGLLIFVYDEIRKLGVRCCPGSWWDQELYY
Sequence (P18434 whole entry partner): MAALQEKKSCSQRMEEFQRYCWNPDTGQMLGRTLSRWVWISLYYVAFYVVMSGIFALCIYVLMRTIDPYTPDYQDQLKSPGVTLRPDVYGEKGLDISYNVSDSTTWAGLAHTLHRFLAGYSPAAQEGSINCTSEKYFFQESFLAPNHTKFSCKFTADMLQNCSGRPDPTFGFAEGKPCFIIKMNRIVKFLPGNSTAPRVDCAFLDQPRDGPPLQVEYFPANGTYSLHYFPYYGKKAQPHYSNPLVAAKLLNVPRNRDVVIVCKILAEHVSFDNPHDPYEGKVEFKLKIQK
Experiment Summary: H+ +K+ ATPase inhibition (inorganic phosphoric acid release)
Assay Conditions: enzyme prepared from porcine stomach; 30 min with compound at room temperature, pH 6.1; then 30 min at 37° C., pH 7.4, 20 mM KCl
pIC50: −log10 of the molar value.
Measure Name: pIC50

>>> endpoint_value("CCN1CCCc2cccc(C[S+]([O-])c3nc4ccc(F)cc4[nH]3)c21 (stereo not drawn)")
6.00
>>> endpoint_value("COc1ccc2nc([S+]([O-])Cc3cccc4c3N(C)CC=C4C)[nH]c2c1 (stereo not drawn)")
6.28
>>> endpoint_value("Cc1ccc2nc([S+]([O-])Cc3cccc4c3N(C)CCC4)[nH]c2c1 (stereo not drawn)")
6.28

(P) CCN1CC=C(C(F)(F)F)c2cccc(C[S+]([O-])c3nc4ccccc4[nH]3)c21 (stereo not drawn)
(Q) CCCCN1CCCc2cccc(C[S+]([O-])c3nc4ccccc4[nH]3)c21 (stereo not drawn)
Data request: # argmax over pIC50 for candidates P and Q // return label of chosen record
Data returned: Q

(a) CCN1CCCc2cccc(C[S+]([O-])c3nc4ccc(C(F)(F)F)cc4[nH]3)c21 (stereo not drawn)
(b) CN1CCCc2cccc(C[S+]([O-])c3nc4ccccc4[nH]3)c21 (stereo not drawn)
(c) C=CCN1CC(C)Cc2cccc(C[S+]([O-])c3nc4ccccc4[nH]3)c21 (stereo not drawn)
(d) CCOC(N(C)C1CCN(CC)c2c(C[S+]([O-])c3nc4cc(F)c(OC)cc4[nH]3)cccc21)C(F)(F)F (stereo not drawn)
Data request: // smallest pIC50 at index 0, largest at the end Labels, ranked as asked.
Data returned: d, c, a, b

(1) CN1CCCc2cccc(C[S+]([O-])c3nc4ccc(Cl)cc4[nH]3)c21 (stereo not drawn)
(2) C=CCN1CCCc2cccc(C[S+]([O-])c3nc4ccc(OC)cc4[nH]3)c21 (stereo not drawn)
(3) CCN1CCC(CO)c2cccc(C[S+]([O-])c3nc4cc(OC)c(F)cc4[nH]3)c21 (stereo not drawn)
Data request: Parameters: sort_field (pIC50), sort_dir (desc). Labels, ranked as asked.
Data returned: 1, 2, 3

(A) CCN1CCCc2cccc(C[S+]([O-])c3nc4ccc(Cl)cc4[nH]3)c21 (stereo not drawn)
(B) CCN1CC(C(=O)N2CCCCC2)Cc2cccc(C[S+]([O-])c3nc4ccccc4[nH]3)c21 (stereo not drawn)
Data request: Please compare: A and B . Report which one has the smaller pIC50 value. // return label of chosen record
Data returned: B
(B: 5.23, A: 6.66)

###

Study System: H^+ +K^+ ATPase (Sus scrofa, UniProt P19156)
Construct: prepared from porcine stomach
Experiment Summary: H+ +K+ ATPase inhibition (inorganic phosphoric acid release)
Assay Conditions: enzyme prepared from porcine stomach; 30 min with compound at room temperature, pH 6.1; then 30 min at 37° C., pH 7.4, 20 mM KCl
Measure Name: IC50 (nM)

These recorded examples may help you get a feel for the data.
>>> endpoint_value("CCN1CCCc2cccc(C[S+]([O-])c3nc4ccc(C(C)=O)cc4[nH]3)c21 (centres unmarked) [Test compound No. 9]")
2200
>>> endpoint_value("[O-][S+](Cc1cccc2c1N(CC1CC1)CCC2)c1nc2ccccc2[nH]1 (centres unmarked) [Test compound No. 35]")
250
>>> endpoint_value("C=CCNC1CCN(CC)c2c(C[S+]([O-])c3nc4ccc(C)cc4[nH]3)cccc21 (centres unmarked) [Test compound No. 60]")
3300
>>> endpoint_value("C=CCOC1CCN(CC)c2c(C[S+]([O-])c3nc4ccccc4[nH]3)cccc21 (centres unmarked) [Test compound No. 51]")
2900
>>> endpoint_value("CC1=C(C)c2cccc(C[S+]([O-])c3nc4ccccc4[nH]3)c2N(C)C1 (centres unmarked) [Test compound No. 42]")
550
>>> endpoint_value("C=CCN(C)C1CCNc2c(C[S+]([O-])c3nc4cc(F)c(OC)cc4[nH]3)cccc21 (centres unmarked) [Test compound No. 71]")
5700
>>> endpoint_value("Cc1ccc2nc([S+]([O-])Cc3cccc4c3N(Cc3ccc(F)cc3)CCC4)[nH]c2c1 (centres unmarked) [Test compound No. 34]")
2100
>>> endpoint_value("CCN1CCC(OC)c2cccc(C[S+]([O-])c3nc4ccccc4[nH]3)c21 (centres unmarked) [Test compound No. 48]")
1100

(P) CCN1CCCc2cccc(C[S+]([O-])c3nc4ccc(C)cc4[nH]3)c21 (centres unmarked) [Test compound No. 2]
(Q) CCN1CCCc2cc(C)cc(C[S+]([O-])c3nc4ccccc4[nH]3)c21 (centres unmarked) [Test compound No. 32]
(R) CCN1CCCc2cccc(C[S+]([O-])c3nc4ccc(OC)cc4[nH]3)c21 (centres unmarked) [Test compound No. 3]
Data request: Parameters: sort_field (IC50), sort_dir (desc). Labels, ranked as asked.
Data returned: Q, R, P
(Q: 920 nM, R: 450 nM, P: 180 nM)

(A) CCN1CC(C(=O)OC)Cc2cccc(C[S+]([O-])c3nc4ccccc4[nH]3)c21 (centres unmarked) [Test compound No. 53]
(B) CCN1CCCc2cccc(C[S+]([O-])c3nc4cc(C)cc(C)c4[nH]3)c21 (centres unmarked) [Test compound No. 12]
(C) CCN1CC=C(C)c2cccc(C[S+]([O-])c3nc4ccccc4[nH]3)c21 (centres unmarked) [Test compound No. 41]
Data request: // smallest IC50 at index 0, largest at the end Labels, ranked as asked.
Data returned: C, B, A
(C: 230 nM, B: 420 nM, A: 4900 nM)

(1) COc1cc2nc([S+]([O-])Cc3cccc4c3N(C)CCC4)[nH]c2cc1F (centres unmarked) [Test compound No. 20]
(2) CN1CCCc2cccc(C[S+]([O-])c3nc4ccc(F)cc4[nH]3)c21 (centres unmarked) [Test compound No. 15]
Data request: Please compare: 1 and 2 . Report which one has the smaller IC50 value. // return label of chosen record
Data returned: 1
(1: 330 nM, 2: 530 nM)

###

Study System: H^+ +K^+ ATPase (Sus scrofa, UniProt P19156)
Construct: prepared from porcine stomach
Experiment Summary: H+ +K+ ATPase inhibition (inorganic phosphoric acid release)
Assay Conditions: enzyme prepared from porcine stomach; 30 min with compound at room temperature, pH 6.1; then 30 min at 37° C., pH 7.4, 20 mM KCl
pIC50: −log10 of the molar value.
Measure Name: pIC50

>>> endpoint_value("C=CCN1CCCc2cccc(C[S+]([O-])c3nc4ccccc4[nH]3)c21 (stereo not shown)")
6.48

(1) C=CCN(Cc1ccc(OC)cc1)C1CCN(CC)c2c(C[S+]([O-])c3nc4cc(F)c(OC)cc4[nH]3)cccc21 (stereo not shown)
(2) CC1=CCN(C)c2c(C[S+]([O-])c3nc4ccc(C)cc4[nH]3)cccc21 (stereo not shown)
Data request: # argmax over pIC50 for candidates 1 and 2 // return label of chosen record
Data returned: 2
(2: 6.89, 1: 5.42)

(a) CCN1CCCc2cccc(C[S+]([O-])c3nc4ccccc4[nH]3)c21 (stereo not shown)
(b) CCN1CCCc2cccc(C[S+]([O-])c3nc4cc(C)c(C)cc4[nH]3)c21 (stereo not shown)
(c) CCN1CC(C(=O)N(C)C)Cc2cccc(C[S+]([O-])c3nc4ccccc4[nH]3)c21 (stereo not shown)
(d) CCN1CCC(N(C=O)C2CC2)c2cccc(C[S+]([O-])c3nc4cc(F)c(OC)cc4[nH]3)c21 (stereo not shown)
(e) CCN1CCC(C)c2cccc(C[S+]([O-])c3nc4cc(OC)c(F)cc4[nH]3)c21 (stereo not shown)
Data request: // smallest pIC50 at index 0, largest at the end Labels, ranked as asked.
Data returned: c, d, e, a, b
(c: 5.29, d: 5.55, e: 6.05, a: 6.35, b: 6.77)

###

Study System: H^+ +K^+ ATPase (Sus scrofa)
Construct: prepared from porcine stomach
Experiment Summary: H+ +K+ ATPase inhibition (inorganic phosphoric acid release)
Assay Conditions: enzyme prepared from porcine stomach; 30 min with compound at room temperature, pH 6.1; then 30 min at 37° C., pH 7.4, 20 mM KCl
Measure Name: IC50 (nM)

>>> endpoint_value("C=CCN1CCC(OC)c2cccc(C[S+]([O-])c3nc4ccc(C)cc4[nH]3)c21 (centres unmarked)")
4000

(1) C=CCN1CCCc2cccc(C[S+]([O-])c3nc4ccc(C)cc4[nH]3)c21 (centres unmarked)
(2) C=C1CCN(CC)c2c(C[S+]([O-])c3nc4ccccc4[nH]3)cccc21 (centres unmarked)
Data request: # argmax over IC50 for candidates 1 and 2 // return label of chosen record
Data returned: 2
(2: 3900 nM, 1: 580 nM)

(P) CC1CCN(C)c2c(C[S+]([O-])c3nc4ccccc4[nH]3)cccc21 (centres unmarked)
(Q) CN1CCC(C)(O)c2cccc(C[S+]([O-])c3nc4ccccc4[nH]3)c21 (centres unmarked)
Data request: # argmax over IC50 for candidates P and Q // return label of chosen record
Data returned: Q

(P) COc1ccc2nc([S+]([O-])Cc3cccc4c3N(C)CCC4)[nH]c2c1 (centres unmarked)
(Q) CCN1CC(C(=O)O)Cc2cccc(C[S+]([O-])c3nc4ccccc4[nH]3)c21 (centres unmarked)
Data request: # argmax over IC50 for candidates P and Q // return label of chosen record
Data returned: Q
(Q: 1900 nM, P: 690 nM)

(I) CCN1CCCc2cc(Br)cc(C[S+]([O-])c3nc4ccccc4[nH]3)c21 (centres unmarked)
(II) CCC1(O)CCN(C)c2c(C[S+]([O-])c3nc4ccccc4[nH]3)cccc21 (centres unmarked)
Data request: Please compare: I and II . Report which one has the smaller IC50 value. // return label of chosen record
Data returned: II
(II: 1800 nM, I: 6400 nM)

(1) CCN1CCCc2cccc(C[S+]([O-])c3nc4cccc(C)c4[nH]3)c21 (centres unmarked)
(2) CCCCN1CCCc2cccc(C[S+]([O-])c3nc4ccc(C)cc4[nH]3)c21 (centres unmarked)
(3) CCN1CCC(=NO)c2cccc(C[S+]([O-])c3nc4ccccc4[nH]3)c21 (centres unmarked)
Data request: // smallest IC50 at index 0, largest at the end Labels, ranked as asked.
Data returned: 2, 1, 3

(a) C=CCN1CCCc2cccc(C[S+]([O-])c3nc4ccc(F)cc4[nH]3)c21 (centres unmarked)
(b) CCOc1cc2[nH]c([S+]([O-])Cc3cccc4c3N(CC)CCC4)nc2cc1F (centres unmarked)
Data request: Please compare: a and b . Report which one has the smaller IC50 value. // return label of chosen record
Data returned: a

(P) CN1CCC(=O)c2cccc(C[S+]([O-])c3nc4ccccc4[nH]3)c21 (centres unmarked)
(Q) CCN1CC(CO)Cc2cccc(C[S+]([O-])c3nc4ccccc4[nH]3)c21 (centres unmarked)
(R) CCN1CCCc2cccc(C[S+]([O-])c3nc4cc(F)c(F)cc4[nH]3)c21 (centres unmarked)
Data request: Parameters: sort_field (IC50), sort_dir (desc). Labels, ranked as asked.
Data returned: P, Q, R

(a) C#CCN1CCCc2cccc(C[S+]([O-])c3nc4ccccc4[nH]3)c21 (centres unmarked)
(b) Cc1cccc2nc([S+]([O-])Cc3cccc4c3N(C)CCC4)[nH]c12 (centres unmarked)
Data request: Please compare: a and b . Report which one has the smaller IC50 value. // return label of chosen record
Data returned: b
